Each record here notes measured interaction score.
- assayedSystem: T1, 4H174-AA
- T1 chain: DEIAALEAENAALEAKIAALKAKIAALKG
- protocolNotes: two-hybrid library CCmax;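 further: natural log of median RNA to DNA barcode read ratio; higher means stronger binding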
- particulars: mean of both orientations
observedProperty: interaction score

In [3]: df
Out[3]:
                                     binder  measurement
0  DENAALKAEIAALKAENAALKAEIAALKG [4H1626-AA]        -1.63
1  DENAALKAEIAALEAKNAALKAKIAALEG [4H1597-AA]       -0.236
2  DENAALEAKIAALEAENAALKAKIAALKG [4H1310-AA]         0.83
3  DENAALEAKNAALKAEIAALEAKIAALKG [4H1478-AA]          1.4
4  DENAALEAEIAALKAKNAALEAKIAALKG [4H1142-AA]         -0.4
5  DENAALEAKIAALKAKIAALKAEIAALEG [4H1385-AA]        0.819
6  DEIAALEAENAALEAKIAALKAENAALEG [4H171-AA]        -1.16
7  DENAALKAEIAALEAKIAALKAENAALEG [4H1579-AA]       -0.805
